The measured values listed here are drawn from patent US20260049077A1.

Target entity: NTRK3 (Homo sapiens (Human), UniProt Q16288)
Sequence (Q16288 32-839): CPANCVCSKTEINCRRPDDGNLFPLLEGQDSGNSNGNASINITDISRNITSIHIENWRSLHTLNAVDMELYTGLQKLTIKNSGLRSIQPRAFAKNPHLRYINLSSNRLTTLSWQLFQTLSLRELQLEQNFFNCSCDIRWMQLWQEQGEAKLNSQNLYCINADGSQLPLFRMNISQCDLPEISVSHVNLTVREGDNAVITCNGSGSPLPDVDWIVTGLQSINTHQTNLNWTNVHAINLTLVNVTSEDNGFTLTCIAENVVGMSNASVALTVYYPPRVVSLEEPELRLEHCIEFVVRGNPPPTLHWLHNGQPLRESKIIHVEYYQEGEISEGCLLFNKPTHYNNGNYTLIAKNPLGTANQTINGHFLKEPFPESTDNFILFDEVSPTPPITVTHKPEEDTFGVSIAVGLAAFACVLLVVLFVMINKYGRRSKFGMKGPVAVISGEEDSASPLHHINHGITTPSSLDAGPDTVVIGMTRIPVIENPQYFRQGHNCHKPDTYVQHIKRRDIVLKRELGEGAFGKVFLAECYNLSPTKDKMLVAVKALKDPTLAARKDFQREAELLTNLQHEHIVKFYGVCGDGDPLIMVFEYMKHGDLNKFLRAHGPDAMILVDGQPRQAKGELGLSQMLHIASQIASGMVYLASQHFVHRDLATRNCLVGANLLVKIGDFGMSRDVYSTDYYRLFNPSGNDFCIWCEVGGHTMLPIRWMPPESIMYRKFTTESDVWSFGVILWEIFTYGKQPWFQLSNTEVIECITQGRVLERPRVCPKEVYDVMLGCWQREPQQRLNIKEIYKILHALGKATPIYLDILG
Readout: IC50

Reference set, count: 5
INSERT INTO assay_data (chemical_smiles, observed_measurement) VALUES
  ('CN(Cc1ccn2ncc(C(N)=O)c2c1)C(=O)Nc1ccc(OC(F)(F)F)cc1', '25.3 nM'),
  ('CC(C)N(Cc1ccn2ncc(C(=O)O)c2c1)C(=O)Nc1ccc(OC(F)(F)F)cc1', '1.2 nM'),
  ('CC(=O)c1ccc(OCC(=O)N(C)Cc2ccn3ncc(C(N)=O)c3c2)cc1', '10900 nM'),
  ('CC(C)N(Cc1ccn2nccc2c1)C(=O)CNc1ccc(C2(C(F)(F)F)CC2)cc1', '922 nM'),
  ('CN(Cc1ccn2ncc(C(N)=O)c2c1)S(=O)(=O)Nc1ccc(OC(F)(F)F)cc1', '4320 nM');

Now, please, on to the next molecule.
[Q] Notebook: pull reported IC50 for NTRK3 (Homo sapiens (Human), UniProt Q16288), entry CC(C)N(Cc1ccn2ncc(C(N)=O)c2c1)C(=O)COc1ccc(OC(F)(F)F)cc1
[A] 10.1 nM

* * *

Target entity: MAP3K19 (Homo sapiens (Human))
Sequence (Q56UN5 whole entry): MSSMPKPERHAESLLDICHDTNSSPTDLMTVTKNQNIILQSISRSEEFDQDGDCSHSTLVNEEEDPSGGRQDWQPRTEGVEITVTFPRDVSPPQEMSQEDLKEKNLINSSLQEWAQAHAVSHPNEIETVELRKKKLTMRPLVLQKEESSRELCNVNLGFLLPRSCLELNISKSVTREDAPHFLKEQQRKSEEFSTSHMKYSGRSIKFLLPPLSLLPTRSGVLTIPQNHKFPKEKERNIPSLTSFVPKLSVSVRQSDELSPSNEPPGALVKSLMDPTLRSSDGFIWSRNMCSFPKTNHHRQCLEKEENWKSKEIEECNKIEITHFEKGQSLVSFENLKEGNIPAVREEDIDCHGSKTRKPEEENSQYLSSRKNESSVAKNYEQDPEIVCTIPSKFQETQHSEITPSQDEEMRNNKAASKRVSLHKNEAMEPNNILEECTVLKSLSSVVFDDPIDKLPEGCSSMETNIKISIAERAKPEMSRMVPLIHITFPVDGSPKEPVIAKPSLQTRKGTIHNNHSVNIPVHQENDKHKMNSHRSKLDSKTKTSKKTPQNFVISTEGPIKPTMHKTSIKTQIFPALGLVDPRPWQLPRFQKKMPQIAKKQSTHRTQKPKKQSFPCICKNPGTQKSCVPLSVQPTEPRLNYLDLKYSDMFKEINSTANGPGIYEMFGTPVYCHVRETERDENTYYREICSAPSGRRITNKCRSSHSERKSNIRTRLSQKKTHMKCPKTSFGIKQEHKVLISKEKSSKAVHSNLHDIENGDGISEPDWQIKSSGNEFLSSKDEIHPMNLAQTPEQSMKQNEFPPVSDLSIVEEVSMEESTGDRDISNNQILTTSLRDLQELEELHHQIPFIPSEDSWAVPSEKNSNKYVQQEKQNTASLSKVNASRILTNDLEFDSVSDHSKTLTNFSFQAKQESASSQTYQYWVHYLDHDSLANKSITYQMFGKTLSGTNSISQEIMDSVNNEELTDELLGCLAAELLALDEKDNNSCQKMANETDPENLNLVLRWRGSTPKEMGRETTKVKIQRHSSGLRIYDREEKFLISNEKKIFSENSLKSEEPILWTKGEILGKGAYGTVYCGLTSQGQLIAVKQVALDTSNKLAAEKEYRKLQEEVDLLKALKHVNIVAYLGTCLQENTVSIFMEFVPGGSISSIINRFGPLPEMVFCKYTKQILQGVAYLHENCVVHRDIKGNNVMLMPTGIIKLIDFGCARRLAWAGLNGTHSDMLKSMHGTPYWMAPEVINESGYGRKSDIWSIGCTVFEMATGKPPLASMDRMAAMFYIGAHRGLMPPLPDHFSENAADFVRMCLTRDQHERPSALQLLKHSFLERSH
Readout: pIC50
The meaning of pIC50 here: minus log10 of the concentration in molar units.

[Q] Tell me the measured pIC50 of CC(C)N(Cc1ccn2ncc(C(=O)O)c2c1)C(=O)Nc1ccc(OC(F)(F)F)cc1 [CDD-2330] , please.
[A] 6.40

* * *

Data export: IC50 values recorded with NTRK2 (Homo sapiens (Human), UniProt Q16620).
Sequence (Q16620 32-822): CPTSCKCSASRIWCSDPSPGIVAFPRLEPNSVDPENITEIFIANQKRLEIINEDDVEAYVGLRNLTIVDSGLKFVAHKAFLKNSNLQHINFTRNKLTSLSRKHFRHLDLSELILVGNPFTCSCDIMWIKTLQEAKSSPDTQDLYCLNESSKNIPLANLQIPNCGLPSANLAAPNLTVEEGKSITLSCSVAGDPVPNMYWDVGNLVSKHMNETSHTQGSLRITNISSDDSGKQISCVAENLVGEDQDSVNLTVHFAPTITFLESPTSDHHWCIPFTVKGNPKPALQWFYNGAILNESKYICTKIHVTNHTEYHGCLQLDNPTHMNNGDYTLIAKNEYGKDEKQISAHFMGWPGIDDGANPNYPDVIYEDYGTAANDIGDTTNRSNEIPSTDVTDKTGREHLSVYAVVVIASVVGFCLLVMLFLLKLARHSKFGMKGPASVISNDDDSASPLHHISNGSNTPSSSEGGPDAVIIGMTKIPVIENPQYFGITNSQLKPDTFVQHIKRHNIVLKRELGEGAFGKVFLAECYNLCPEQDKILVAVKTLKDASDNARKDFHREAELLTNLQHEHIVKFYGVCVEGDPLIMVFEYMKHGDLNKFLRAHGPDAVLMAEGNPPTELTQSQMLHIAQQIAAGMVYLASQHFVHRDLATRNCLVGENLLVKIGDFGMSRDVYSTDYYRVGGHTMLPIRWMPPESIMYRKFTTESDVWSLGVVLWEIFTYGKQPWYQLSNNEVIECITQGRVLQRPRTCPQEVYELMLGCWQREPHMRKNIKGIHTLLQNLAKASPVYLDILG
Numeric only. Scale: nM

[Q] Notebook: pull reported IC50 for NTRK2 (Homo sapiens (Human), UniProt Q16620), entry CC[C@@H](C)N(Cc1ccn2ncc(C(N)=O)c2c1)C(=O)Nc1ccc(OC(F)(F)F)cc1 [CDD-3057]
[A] 4

[Q] Notebook: pull reported IC50 for NTRK2 (Homo sapiens (Human), UniProt Q16620), entry CC(C)N(Cc1ccn2nccc2c1)C(=O)CNc1ccc(C2(C(F)(F)F)CC2)cc1 [CDD-3307]
[A] 414

[Q] Notebook: pull reported IC50 for NTRK2 (Homo sapiens (Human), UniProt Q16620), entry NC(=O)c1cnn2ccc(CN(C(=O)Nc3ccc(OC(F)(F)F)cc3)C3CC3)cc12 [CDD-2738]
[A] 0.52

[Q] Notebook: pull reported IC50 for NTRK2 (Homo sapiens (Human), UniProt Q16620), entry CC(C)N(Cc1ccc2[nH]ccc2c1)C(=O)Nc1ccc(OC(F)(F)F)cc1 [CDD-3265]
[A] 53700

* * *

Target entity: NTRK2 (Homo sapiens (Human))
Assay method text: NTRK2 apparent inhibition constant (Ki app)
Readout: Ki

INSERT INTO results (chemical_smiles, observed_measurement) VALUES
  ('O=C(O)c1cnn2ccc(CN(C(=O)Nc3ccc(OC(F)(F)F)cc3)C3CCC3)cc12', '0.017 µM');

[Q] Tell me the measured Ki of CCOc1ccc(CC(=O)N(Cc2ccn3nccc3c2)[C@H](C)c2ccccc2)cc1 , please.
[A] 0.034 µM

* * *

Target entity: NTRK1 (Homo sapiens (Human))
Assay method text: NTRK1 inhibition (IC50)
Readout: pIC50
The meaning of pIC50 here: minus log10 of the concentration in molar units.

[Q] Notebook: pull reported pIC50 for NTRK1 (Homo sapiens (Human)), entry CN(C)C(=O)[C@H](Cc1cccc([N+](=O)[O-])c1)NC(=O)Nc1c(Cl)cccc1C(F)(F)F
[A] 4.40

* * *

Target entity: NTRK1 (Homo sapiens (Human), UniProt P04629)
Sequence (P04629 33-796): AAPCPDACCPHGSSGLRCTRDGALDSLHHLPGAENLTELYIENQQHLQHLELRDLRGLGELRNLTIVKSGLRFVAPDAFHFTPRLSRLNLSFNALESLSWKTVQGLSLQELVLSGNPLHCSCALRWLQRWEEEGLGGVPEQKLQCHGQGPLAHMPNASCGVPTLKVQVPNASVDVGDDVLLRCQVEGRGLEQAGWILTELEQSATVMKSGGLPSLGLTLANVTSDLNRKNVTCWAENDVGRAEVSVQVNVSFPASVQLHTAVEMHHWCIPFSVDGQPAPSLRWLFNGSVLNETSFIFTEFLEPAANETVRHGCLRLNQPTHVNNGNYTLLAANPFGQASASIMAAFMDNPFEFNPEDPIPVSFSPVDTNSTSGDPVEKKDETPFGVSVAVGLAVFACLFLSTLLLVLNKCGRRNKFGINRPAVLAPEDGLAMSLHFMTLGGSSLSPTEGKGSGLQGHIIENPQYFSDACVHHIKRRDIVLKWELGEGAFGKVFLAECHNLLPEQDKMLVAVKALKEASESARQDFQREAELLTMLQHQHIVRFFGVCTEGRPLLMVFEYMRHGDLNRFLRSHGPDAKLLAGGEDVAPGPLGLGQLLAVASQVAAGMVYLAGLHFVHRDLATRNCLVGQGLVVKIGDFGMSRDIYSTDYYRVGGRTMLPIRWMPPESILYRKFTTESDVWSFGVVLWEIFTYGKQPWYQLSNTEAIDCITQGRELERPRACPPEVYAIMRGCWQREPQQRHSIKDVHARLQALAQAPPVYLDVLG
Assay method text: NTRK1 inhibition (IC50)
Experimental conditions: read-out: NTRK1 IC50
Entries are grouped by IC50 into these classes: I (below 10 nM), II (10 nM to below 2000 nM), III (2000 nM or more)

Solved cases below.
INSERT INTO results (chemical_smiles, category_label) VALUES
  ('CN(Cc1ccn2ncc(C(N)=O)c2c1)C(=S)Nc1ccc(OC(F)(F)F)cc1', 'II'),
  ('CC(C)N(Cc1ccn2nccc2c1)C(=O)CNc1ccc(C(C)(C)C)nc1', 'III'),
  ('CN(Cc1ccn2ncc(C(N)=O)c2c1)C(=O)COc1ccc(OC(F)(F)F)cc1', 'III'),
  ('CN(Cc1ccn2ncc(C(N)=O)c2c1)C(=O)CNc1ccc(OC(F)(F)F)cc1', 'III'),
  ('CC(C)N(Cc1ccc2[nH]ccc2c1)C(=O)Nc1ccc(OC(F)(F)F)cc1', 'III'),
  ('CC(C)N(Cc1ccn2nccc2c1)C(=O)CNc1ccc(C2(C(F)(F)F)CC2)cc1', 'III'),
  ('O=C(O)c1cnn2ccc(CN(C(=O)Nc3ccc(OC(F)(F)F)cc3)C3CC3)cc12', 'I'),
  ('CNC(=O)[C@@H](Cc1ccc([N+](=O)[O-])cc1)NC(=O)Nc1ccc(Oc2ccccc2)cc1', 'III');

[Q] Consider CC(C)N(Cc1ccn2ncc(C(=O)O)c2c1)C(=O)Nc1ccc(OC(F)(F)F)cc1 . To which IC50 class does it belong?
[A] I

[Q] Consider CC(C)N(Cc1ccn2ncc(C(=N)NO)c2c1)C(=O)Nc1ccc(OC(F)(F)F)cc1 . To which IC50 class does it belong?
[A] II

[Q] Consider NC(=O)c1cnn2ccc(CN(C(=O)Nc3ccc(OC(F)(F)F)cc3)C3CC3)cc12 . To which IC50 class does it belong?
[A] I

[Q] Consider O=C(Nc1ccccc1C(F)(F)F)N(Cc1ccn2nccc2c1)C1CCC1 . To which IC50 class does it belong?
[A] II

[Q] Consider C=C(C)c1ccc(OCC(=O)N(Cc2ccn3ncc(C(N)=O)c3c2)C(C)C)cc1 . To which IC50 class does it belong?
[A] II

[Q] Consider CN(Cc1ccn2ncc(C(N)=O)c2c1)C(=O)COc1ccc(C(F)(F)F)cc1 . To which IC50 class does it belong?
[A] III

* * *

Assay method text: Mouse brain and testis distribution
Type: in vivo
Experimental conditions: brain, ip, mice, intraperitoneal, read-out: Brain:Plasma
Readout: Kp at 4 h

[Q] Tell me the measured Kp at 4 h of CC(C)N(Cc1ccn2ncc(C(=O)O)c2c1)C(=O)Nc1ccc(OC(F)(F)F)cc1 , please.
[A] 0.31

* * *

Assay method text: Metabolic stability in human liver microsomes (HLM)
Entries are grouped by half-life into these classes: low band (below 2 h), middle band (2 h to below 4 h), high band (4 h or more)

Solved cases below.
INSERT INTO results (molecule, category_label) VALUES
  ('CC(C)N(Cc1ccn2ncc(C#N)c2c1)C(=O)Nc1ccc(OC(F)(F)F)cc1 [CDD-2741]', 'middle band'),
  ('CC(C)N(Cc1ccn2nccc2c1)C(=O)Nc1ccc(OC(F)(F)F)cc1 [CDD-2299]', 'low band'),
  ('CC(C)N(Cc1ccn2ncc(F)c2c1)C(=O)Nc1ccc(OC(F)(F)F)cc1 [CDD-2734]', 'low band'),
  ('Cc1nnc2n1-c1ccc(Cl)cc1C(c1ccccc1)=NC2 [Alprazolam]', 'high band'),
  ('CC(C)N(Cc1ccn2ncc(C(N)=O)c2c1)C(=O)COc1ccc(C(C)(C)C)cc1 [CDD-3184]', 'low band'),
  ('C=C(C)c1ccc(OCC(=O)N(Cc2ccn3ncc(C(N)=O)c3c2)C(C)C)cc1 [CDD-3255]', 'low band'),
  ('CC(C)N(Cc1ccn2ncc(C(N)=O)c2c1)C(=S)Nc1ccc(OC(F)(F)F)cc1 [CDD-3119]', 'low band'),
  ('CN(Cc1ccn2ncc(C(N)=O)c2c1)C(=O)COc1ccc(OC(F)(F)F)cc1 [CDD-3132]', 'high band');

[Q] Consider O=C(Nc1ccc(OC(F)(F)F)cc1)N(Cc1ccn2nccc2c1)C1CCCC1 [CDD-2276] . To which half-life class does it belong?
[A] low band

[Q] Consider CC(C)N(Cc1ccn2ncc(C(N)=O)c2c1)C(=O)Nc1ccc(OC(F)(F)F)cc1 [CDD-2737] . To which half-life class does it belong?
[A] middle band

[Q] Consider CN(Cc1ccn2ncc(C(N)=O)c2c1)C(=O)CNc1ccc(OC(F)(F)F)cc1 [CDD-3258] . To which half-life class does it belong?
[A] high band

[Q] Consider O=C(Nc1ccc(OC(F)(F)F)cc1)N(Cc1ccn2nccc2c1)C1CC1 [CDD-2275] . To which half-life class does it belong?
[A] low band

[Q] Consider CC(C)N(Cc1ccn2ncc(C(=O)O)c2c1)C(=O)Nc1ccc(OC(F)(F)F)cc1 [CDD-2330] . To which half-life class does it belong?
[A] high band

* * *

Target entity: NTRK1 (Homo sapiens (Human))
Assay method text: NTRK1 inhibition (IC50)
Experimental conditions: read-out: NTRK1 IC50
Label TRUE when IC50 is strictly below 700 nM; at or above that, label FALSE.

INSERT INTO assay_data (molecule, target_entity, category_label) VALUES
  ('CC(C)N(Cc1ccn2ncc(F)c2c1)C(=O)Nc1ccc(OC(F)(F)F)cc1 [CDD-2734]', 'NTRK1 (Homo sapiens (Human))', 'TRUE');

[Q] Please determine if CC(C)N(Cc1ccn2ncc(C(N)=O)c2c1)C(=O)COc1ccc(OC(F)(F)F)cc1 [CDD-3133] is below 700 nM in terms of IC50.
[A] TRUE

[Q] Please determine if CCC(C)N(Cc1ccn2ncc(C(=O)O)c2c1)C(=O)Nc1ccc(OC(F)(F)F)cc1 (centres unmarked) [CDD-2743] is below 700 nM in terms of IC50.
[A] TRUE

[Q] Please determine if CN(Cc1ccn2ncc(C(N)=O)c2c1)C(=O)CN(C)c1ccc(C(C)(C)C)cc1 [CDD-3185] is below 700 nM in terms of IC50.
[A] FALSE

[Q] Please determine if CC[C@@H](C)N(Cc1ccn2ncc(C(N)=O)c2c1)C(=O)Nc1ccc(OC(F)(F)F)cc1 [CDD-3057] is below 700 nM in terms of IC50.
[A] TRUE

[Q] Please determine if CC[C@H](C)N(Cc1ccn2ncc(C(N)=O)c2c1)C(=O)Nc1ccc(OC(F)(F)F)cc1 [CDD-3058] is below 700 nM in terms of IC50.
[A] TRUE

[Q] Please determine if NC(=O)c1cnn2ccc(CNC(=S)Nc3ccc(OC(F)(F)F)cc3)cc12 [CDD-3131] is below 700 nM in terms of IC50.
[A] FALSE

[Q] Please determine if CN(Cc1ccn2ncc(C(N)=O)c2c1)C(=O)COc1cccc(OC(F)(F)F)c1 [CDD-3182] is below 700 nM in terms of IC50.
[A] FALSE
